// provenance: ChEMBL document CHEMBL1201862

# System: UACC-62
# experiment description: NCI tumour cell line growth inhibition, 48 h
About 4,200 (7.4%) of roughly 57,000 sequences were called active. The list is a sample of the results. Potency and affinity values are given separately.
GI50 vs 3 µM: less than gives Met; not less than gives Not met.

substance	subject of test	answer label
[Bis(aminomethyl)tetramethylenesilane]tetrachloropaltinum(IV), CHEMBL2146189	UACC-62	Not met
mu-(1,7-nanodiamine-N,N')bis-(cis-aminedichloroplatimum (II)), CHEMBL2146215	UACC-62	Not met
CISPLATIN, CHEMBL11359	UACC-62	Met
[Bis(aminomethyl)dimethylsilane]dichloroplatinum (II), CHEMBL2146201	UACC-62	Not met
[Bis(aminomethyl)tetramethylenesilane]dichloropaltinum(II), CHEMBL2146205	UACC-62	Not met
[Bis(aminomethyl)pentamethylenesilane]tetrachloropaltinum(IV), CHEMBL2146204	UACC-62	Met
[Bis(aminomethyl)ethylmethylsilane]tetrachloroplatinum(IV), CHEMBL2146192	UACC-62	Met
[Bis(aminomethyl)pentamethylenesilane]dichloropaltinum(II), CHEMBL2146202	UACC-62	Met
